Conditions: in ethyl formate, 288.15 K
Reported Metric: solubility (mole fraction)
Give bare numbers.

Exam item: For COCCOC(=O)C1=C(C)NC(C)=C(C(=O)OC(C)C)C1c1cccc([N+](=O)[O-])c1 (stereo unspecified) , what is its reported solubility (mole fraction)?
Marked response: 0.00192

* * *

Conditions: in acetonitrile, 313.15 K
Reported Metric: solubility (mole fraction)
Give bare numbers.

Exam item: For COCCOC(=O)C1=C(C)NC(C)=C(C(=O)OC(C)C)C1c1cccc([N+](=O)[O-])c1 (stereo unspecified) , what is its reported solubility (mole fraction)?
Marked response: 0.00503

* * *

Conditions: in methyl acetate, 313.15 K
Reported Metric: solubility (mole fraction)
One number for each entry.

Exam item: For COCCOC(=O)C1=C(C)NC(C)=C(C(=O)OC(C)C)C1c1cccc([N+](=O)[O-])c1 (stereo unspecified) , what is its reported solubility (mole fraction)?
Marked response: 0.00997

* * *

Conditions: in isobutanol, 278.15 K
Reported Metric: solubility (mole fraction)
Answers are plain numbers.

Exam item: For COCCOC(=O)C1=C(C)NC(C)=C(C(=O)OC(C)C)C1c1cccc([N+](=O)[O-])c1 (stereo unspecified) , what is its reported solubility (mole fraction)?
Marked response: 0.00706
